These data points were gathered from ChEMBL document CHEMBL1833906.

Molecular target: Cannabinoid receptor 2 (Homo sapiens, UniProt P34972)
Sequence (P34972 whole entry): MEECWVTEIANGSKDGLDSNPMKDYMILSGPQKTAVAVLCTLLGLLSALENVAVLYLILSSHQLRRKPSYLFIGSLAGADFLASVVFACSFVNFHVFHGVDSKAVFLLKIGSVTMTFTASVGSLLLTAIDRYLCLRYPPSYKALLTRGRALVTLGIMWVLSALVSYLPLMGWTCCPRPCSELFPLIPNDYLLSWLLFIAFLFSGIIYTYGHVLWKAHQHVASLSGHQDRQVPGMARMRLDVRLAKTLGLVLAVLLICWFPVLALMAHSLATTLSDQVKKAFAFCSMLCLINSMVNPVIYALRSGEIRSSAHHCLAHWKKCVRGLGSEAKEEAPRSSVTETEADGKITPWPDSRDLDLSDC
Test: Displacement of [3H]-CP55940 from human recombinant cannabinoid CB2 receptor expressed in CHO-K1 cells
Format: cell-based
pKi: −log10 of the molar value.

{"columns": ["smiles-representation", "pKi"],
 "data": [
  ["CCCCCN1C(=O)/C(=N\\NC(=O)CN(C)c2ccc([N+](=O)[O-])c3nonc23)c2ccc(OC)cc21", 6.41]
]}
